# Tested on: Betaine/GABA transporter BGT1 (Mus musculus)
# Method Summary: Inhibition of mouse GAT2 expressed in HEK293 cells assessed as remaining [3H]GABA uptake at 100 uM preincubated for 25 mins followed by [3H]GABA addition and measured after 4 mins by liquid scintillation counting method
Metric: Activity (%)
Give your result in % as a bare value.

Case COc1ccc(C(/C=C/CN2CCCC(C(=O)O)C2)(c2ccc(OC)cc2)c2ccsc2)cc1 (racemic) , Betaine/GABA transporter BGT1 (Mus musculus), Activity recorded as 53

Case COc1ccc(CC(/C=C/CN2CCCC(C(=O)O)C2)(c2ccc(OC)cc2)c2ccc(OC)cc2)cc1 (racemic) , Betaine/GABA transporter BGT1 (Mus musculus), Activity recorded as 60

Case O=C(O)C1CCCN(C/C=C/C(c2ccccc2)(c2ccccc2)c2ccccc2)C1 (racemic) , Betaine/GABA transporter BGT1 (Mus musculus), Activity recorded as 108

Case COc1ccc(C(/C=C/CN2CCCC(C(=O)O)C2)(Cc2ccccc2)c2ccc(OC)cc2)cc1 (racemic) , Betaine/GABA transporter BGT1 (Mus musculus), Activity recorded as 92

Case COc1ccc(C(/C=C/CN2CCCC(C(=O)O)C2)(c2ccc(OC)cc2)c2nccn2C)cc1 (racemic) , Betaine/GABA transporter BGT1 (Mus musculus), Activity recorded as 72

Case COc1ccc(C(C/C=C/CN2CCCC(C(=O)O)C2)(c2ccc(OC)cc2)c2ccc(OC)cc2)cc1 (racemic) , Betaine/GABA transporter BGT1 (Mus musculus), Activity recorded as 66

Case COc1ccc(C(O)(/C=C/CN2CCCC(C(=O)O)C2)c2ccc(OC)cc2)cc1 (racemic) , Betaine/GABA transporter BGT1 (Mus musculus), Activity recorded as 69

Case COc1ccc(C(/C=C/CN2CCCC(C(=O)O)C2)(c2ccc(OC)cc2)c2nccs2)cc1 (racemic) , Betaine/GABA transporter BGT1 (Mus musculus), Activity recorded as 78

From: ChEMBL document CHEMBL4261659
